Where do these numbers come from? They come from patent US6025349A.

# tested-target: Na^+ /H^+ exchanger of rabbit erythrocytes (Oryctolagus cuniculus, UniProt P23791)
# Sequence (P23791 whole entry): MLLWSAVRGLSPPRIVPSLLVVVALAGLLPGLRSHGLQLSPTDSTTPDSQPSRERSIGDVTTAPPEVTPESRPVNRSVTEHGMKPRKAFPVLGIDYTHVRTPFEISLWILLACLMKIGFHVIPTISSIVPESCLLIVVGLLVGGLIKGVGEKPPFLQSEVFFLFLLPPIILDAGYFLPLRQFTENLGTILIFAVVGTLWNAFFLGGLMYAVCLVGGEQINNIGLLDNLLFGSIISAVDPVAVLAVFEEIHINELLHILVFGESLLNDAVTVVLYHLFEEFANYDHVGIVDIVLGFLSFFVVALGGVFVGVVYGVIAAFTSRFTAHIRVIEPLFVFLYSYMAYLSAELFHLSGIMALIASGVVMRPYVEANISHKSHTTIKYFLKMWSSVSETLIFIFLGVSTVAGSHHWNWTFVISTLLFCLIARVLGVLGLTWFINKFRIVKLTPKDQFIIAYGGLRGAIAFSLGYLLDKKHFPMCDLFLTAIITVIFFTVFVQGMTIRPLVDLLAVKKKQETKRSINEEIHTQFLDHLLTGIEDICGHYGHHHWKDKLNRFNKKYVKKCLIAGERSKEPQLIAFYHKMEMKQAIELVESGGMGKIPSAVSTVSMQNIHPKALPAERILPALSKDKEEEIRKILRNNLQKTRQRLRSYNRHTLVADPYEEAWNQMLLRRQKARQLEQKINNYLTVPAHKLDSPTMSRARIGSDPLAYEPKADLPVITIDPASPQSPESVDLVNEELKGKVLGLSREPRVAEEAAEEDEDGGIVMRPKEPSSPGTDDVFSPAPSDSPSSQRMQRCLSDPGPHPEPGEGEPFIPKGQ
# experiment: Inhibition of the Na^+ /H^+ exchanger of rabbit erythrocytes (amiloride-sensitive sodium influx, flame photometry)
# assay-conditions: pH 7.4, 37° C., cholesterol-fed White New Zealand rabbits
Counter-ions that a name gives are not always drawn.
parameter: IC50

[
  {
    "compound": "NC(N)=NC(=O)C=Cc1cccc(C(F)(F)F)c1 [Example 1, Hydrochloride]",
    "result": "< 1000 nM"
  },
  {
    "compound": "C/C(=C\\c1cccc(C(F)(F)F)c1)C(=O)N=C(N)N",
    "result": "< 1000 nM"
  }
]

Please examine the following record next.
Query: Need IC50 of `C/C(C(=O)N=C(N)N)=C(/C)c1cc(C(F)(F)F)ccc1F` , thanks.
Reply: < 1000 nM
